Each item that follows carries a reported In vitro activity compared to native-type peptide (%), vs GLP-1.
- MEASUREMENT TARGET: human GLP-1 receptor (human, UniProt P43220 24-463)
- METHOD DESCRIPTION: cell-based or functional assay
Bridge positions count the residues as written; N and C are the ends. Square brackets hold non-standard residues; d marks the D form. Ends that are not written are not given here. Aib = CC(C)(N)C(=O)O
Numeric only. Scale: %

[[record]]
binder = "Y[Aib]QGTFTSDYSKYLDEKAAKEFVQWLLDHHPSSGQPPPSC (bridge 16-20) [triple agonist of SEQ ID NO: 75]"
numeric_readout = 35.1


Ask | So what does the record say about In vitro activity compared to native-type peptide (%), vs GLP-1 for H[Aib]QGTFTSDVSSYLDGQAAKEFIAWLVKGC [triple agonist of SEQ ID NO: 1] ?
Reply | 3.2

Ask | So what does the record say about In vitro activity compared to native-type peptide (%), vs GLP-1 for H[Aib]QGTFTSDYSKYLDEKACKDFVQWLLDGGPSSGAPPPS (bridge 16-20) [triple agonist of SEQ ID NO: 32] ?
Reply | 151

Values were extracted from patent US20230381333A1.
